Overview of reported IC50 across a group of binders:
- targetEntity: gp120 envelope glycoprotein (HIV-1, UniProt P04578 P04578:33-511)
- methodDescription: competition; ID50, gp120/CD4 ELISA
- condition: tags: gp120 capture ELISA kit

These recorded examples may help you get a feel for the data.
| binder | IC50 |
| --- | --- |
| GATCCATGTCAGTGACAC (ssDNA, phosphodiester, amine) [1231 random] | > 100 µM |
| GATCCATGTCAGTGACAC (ssDNA, all PS) [1232 random PT] | > 10 µM |

Here is the next item to consider.
Provide only the value of recorded IC50 for GGGTGGGTGGGTGGGTGG (ssDNA, all PS) [1174]
0.09 µM
